test system: NCI-H460; test: NCI tumour cell line growth inhibition, 48 h
The source made the active and inactive calls. Rule as the data show it: active = GI50 up to about 1.1 µM and inactive = higher.
Pick one: true (1) = active, false (0) = inactive

[[record]]
compound = "CC(C)NC(=O)OCc1c2c(n(C)c1COC(=O)NC(C)C)-c1ccccc1CC2"
grouplabel = "false (0)"


Next compound, please.
Q: Field: outcome | Entry: COc1ccc(N2CN(C)CSC2=S)cc1
Result: false (0)

====

system: MDA-MB-231; experiment: NCI tumour cell line growth inhibition, 48 h
Calls of active or inactive are those of the source. No stated cut-off is given here; in the data, active = GI50 up to about 1.1 µM and inactive = higher.
Pick one: active, inactive

[[record]]
molecule = "CCOC(=O)Cc1nc2cc(F)c(F)cc2[nH]c1=O"
grouplabel = "inactive"


Q: Field: outcome | Entry: CS(=O)(=O)OCCN1CCC2(CC1)SSC1(CCN(CCOS(C)(=O)=O)CC1)S2
Result: inactive

Q: Field: outcome | Entry: COc1ccc(-n2c(N)c(C#N)c(C#N)c2-c2ccccc2)cc1
Result: inactive

Q: Field: outcome | Entry: S=c1sscc1N1CCSc2ssc(=S)c21
Result: inactive

Q: Field: outcome | Entry: CCc1n[nH]c(=O)n1CCO
Result: inactive

Q: Field: outcome | Entry: CN1N=C(c2ccncc2)OC1c1cccc(C(F)(F)F)c1 (stereo not given)
Result: inactive

====

test system: MOLT-4; assay: NCI tumour cell line growth inhibition, 48 h
The source made the active and inactive calls. No stated cut-off is given here; in the data, active = GI50 up to about 1.1 µM and inactive = higher.
observable: GI50

# count of solved cases: 5
[[record]]
compound = "Cc1ccc(-c2c(C#N)c(-c3ccc([N+](=O)[O-])cc3)c(C#N)c(=O)n2NS(=O)(=O)c2ccc(C)cc2)cc1"
measuredtarget = "MOLT-4"
assayvalue = "19.8 µM (inactive)"

[[record]]
compound = "COC(=O)NC(C(F)(F)F)(C(F)(F)F)P1(=O)OCCCO1"
measuredtarget = "MOLT-4"
assayvalue = "17.1 µM (inactive)"

[[record]]
compound = "C=C(C)[C@@H]1CC[C@@H](C)[C@](O)([C@@H]2C[C@@H]([C@H](COC(=O)c3ccccc3)OC(=O)c3ccccc3)OC2=O)C1"
measuredtarget = "MOLT-4"
assayvalue = "28 µM (inactive)"

[[record]]
compound = "Cc1ccc(OCC2OC(n3cnc4nc(Cl)nc(Cl)c43)CC2Oc2ccc(C)cc2)cc1 (stereo not given)"
measuredtarget = "MOLT-4"
assayvalue = "2.01 µM (inactive)"

[[record]]
compound = "Oc1ccc(/C=C/c2cc(O)cc(O)c2)cc1"
measuredtarget = "MOLT-4"
assayvalue = "7.23 µM (inactive)"


Q: Entry under review: CC(Oc1ccc(OCC2CCCCC2)cc1)C(=O)NCc1ccco1 (stereo not given) . Reported GI50?
Result: 34.9 µM (inactive)

Q: Entry under review: CNNC1=NS(=O)(=O)c2cc(C(=O)OC)c(Cl)cc2S1 . Reported GI50?
Result: > 10 µM (inactive)

Q: Entry under review: O=C1C2CC=CCC2C(=O)N1n1c(Cc2ccc(Cl)cc2)n[nH]c1=O (stereo not given) . Reported GI50?
Result: > 100 µM (inactive)

Q: Entry under review: Nc1nc2c(ncn2C2CCC(CO)O2)c(=O)n1C(=O)c1ccccc1 (stereo not given) . Reported GI50?
Result: > 100 µM (inactive)

Q: Entry under review: CCCCCCCCCOCC(COP(=O)([O-])OCC[N+](C)(C)C)OC (stereo not given) . Reported GI50?
Result: > 100 µM (inactive)
